The origin of these recorded values is patent US20230183291A1.

# tested on: T1, Biotinylated Human ACE2, His, Avitag protein (ACROBiosystems, AC2-H82E6) (human, UniProt Q9BYF1 18-740)
# T1 construct: also called biotinylated ACE2; ACE2 protein; not shown: His tag and Avitag
# T1 sequence (Q9BYF1 18-740 limits assumed): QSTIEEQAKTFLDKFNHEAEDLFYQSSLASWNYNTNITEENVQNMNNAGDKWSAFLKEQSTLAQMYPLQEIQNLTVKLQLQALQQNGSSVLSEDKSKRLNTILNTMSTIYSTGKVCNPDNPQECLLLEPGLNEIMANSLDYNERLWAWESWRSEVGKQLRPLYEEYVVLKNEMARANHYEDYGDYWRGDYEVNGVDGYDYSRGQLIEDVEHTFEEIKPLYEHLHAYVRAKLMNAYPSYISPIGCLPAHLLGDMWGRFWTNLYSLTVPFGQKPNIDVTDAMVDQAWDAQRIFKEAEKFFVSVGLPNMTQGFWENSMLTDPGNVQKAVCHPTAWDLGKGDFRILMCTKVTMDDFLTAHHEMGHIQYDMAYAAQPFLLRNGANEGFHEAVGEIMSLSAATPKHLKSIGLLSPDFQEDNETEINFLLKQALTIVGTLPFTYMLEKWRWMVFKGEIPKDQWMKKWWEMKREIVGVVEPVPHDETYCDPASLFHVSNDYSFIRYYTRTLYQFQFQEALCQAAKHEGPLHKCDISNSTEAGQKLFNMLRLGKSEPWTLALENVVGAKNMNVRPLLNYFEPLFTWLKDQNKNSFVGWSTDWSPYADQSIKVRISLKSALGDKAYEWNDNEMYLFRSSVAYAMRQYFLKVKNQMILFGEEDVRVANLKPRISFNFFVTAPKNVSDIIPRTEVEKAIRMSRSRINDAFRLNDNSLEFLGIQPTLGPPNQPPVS
# experiment notes: SPR multiple cycle kinetics, ACE2 captured on CAP chip, peptide analyte 6.25-100 nM; geometric mean
Numbered stars: 1 amine (or outer) side, 2 acyl side, 3 side chain; on linkers, the order of the positions; unused ones are H or OH. Bridge positions count the residues as written; N and C are the ends. Square brackets hold non-standard residues; d marks the D form. Ends that are not written are not given here. TATA = O=C(CC[*:1])N1CN(C(=O)CC[*:2])CN(C(=O)CC[*:3])C1; Hyp = O=C(O)[C@@H]1C[C@@H](O)CN1; hArg = N=C(N)NCCCC[C@H](N)C(=O)O; PYA = propargyl-acid
Threshold check on Kd: strictly below 10 nM is criterion met; on or above 10 nM is criterion not met.

                                     binder     classification
0  Ac-CNTVLCGWA[hArg]ANSLCK(PYA) (linker 1-6-15 via TATA, bicyclic peptide, TATA scaffold) [BCY18551]  criterion not met
1  ACNTVLCNWARYNSLCA (linker 2-7-16 via TATA, bicyclic peptide, TATA scaffold) [BCY17160]      criterion met
2  Ac-CNAVLCSWA[hArg]SNSFC (linker 1-6-15 via TATA, bicyclic peptide, TATA scaffold) [BCY19026]  criterion not met
3  Ac-CNTVLCGWA[hArg]ANSLCAK(PYA) (linker 1-6-15 via TATA, bicyclic peptide, TATA scaffold) [BCY18549]  criterion not met
4  ACNTVLCGWARANSLCA (linker 2-7-16 via TATA, bicyclic peptide, TATA scaffold) [BCY17162]  criterion not met
5  ACNQVLCRWAQVNSMCA (linker 2-7-16 via TATA, bicyclic peptide, TATA scaffold) [BCY17158]      criterion met
6  Ac-CN[Hyp]VLCSWA[hArg]ANSFC (linker 1-6-15 via TATA, bicyclic peptide, TATA scaffold) [BCY18210]  criterion not met
